This listing pairs binders with measured pKd.
measuredTarget: T1, human α-CGRP 1-37 (WT) (human, C-terminal amide; N-terminal biotin when captured on the SA chip; 125I-labelled in the radioligand assay)
T1 construct: also called α-human
T1 peptide: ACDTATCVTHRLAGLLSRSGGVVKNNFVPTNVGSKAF
experimentalDetails: Biacore, 37°C, Fab over CGRP on SA chip
pKd: −log10 of the molar value.
property: pKd

INSERT INTO results (binder, assayvalue) VALUES
  ('G1 variant M81 Fab (Fab, V domains shown, Fab; constant domains as m1) VH: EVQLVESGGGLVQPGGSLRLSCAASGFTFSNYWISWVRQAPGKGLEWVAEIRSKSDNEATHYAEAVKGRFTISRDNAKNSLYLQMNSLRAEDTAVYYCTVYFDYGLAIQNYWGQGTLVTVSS VL: EIVLTQSPATLSLSPGERATLSCKASKNVSTYVSWYQQKPGQAPRLLIYGASNRYSGIPARFSGSGSGTDFTLTISSLEPEDFAVYYCSQSYNYPYTFGQGTKLEIK', 8.51),
  ('G1 variant M29 Fab (Fab, V domains shown, Fab; constant domains as m1) VH: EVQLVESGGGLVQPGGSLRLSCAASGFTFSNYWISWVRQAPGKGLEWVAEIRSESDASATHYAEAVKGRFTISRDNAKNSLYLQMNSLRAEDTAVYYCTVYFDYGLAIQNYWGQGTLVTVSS VL: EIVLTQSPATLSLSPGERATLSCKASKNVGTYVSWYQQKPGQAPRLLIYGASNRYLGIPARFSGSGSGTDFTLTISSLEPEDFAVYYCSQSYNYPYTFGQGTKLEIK', 8.62),
  ('G1 variant M20 Fab (Fab, V domains shown, Fab; constant domains as m1) VH: EVQLVESGGGLVQPGGSLRLSCAASGFTFSNYWISWVRQAPGKGLEWVAEIRSESDASATHYAEAVKGRFTISRDNAKNSLYLQMNSLRAEDTAVYYCRLYFDYGLAIQNYWGQGTLVTVSS VL: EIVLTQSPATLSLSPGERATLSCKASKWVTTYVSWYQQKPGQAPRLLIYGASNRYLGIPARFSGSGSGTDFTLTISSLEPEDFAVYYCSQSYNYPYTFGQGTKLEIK', 9.07),
  ('G1 variant M78 Fab (Fab, V domains shown, Fab; constant domains as m1) VH: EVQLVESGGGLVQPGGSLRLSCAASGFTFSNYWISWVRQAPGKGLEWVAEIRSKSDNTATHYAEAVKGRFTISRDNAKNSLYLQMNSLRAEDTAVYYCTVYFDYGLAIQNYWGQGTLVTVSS VL: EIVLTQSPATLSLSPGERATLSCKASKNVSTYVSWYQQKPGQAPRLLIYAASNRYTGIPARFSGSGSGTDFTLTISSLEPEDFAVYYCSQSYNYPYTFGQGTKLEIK', 8.09),
  ('G1 variant M16 Fab (Fab, V domains shown, Fab; constant domains as m1) VH: EVQLVESGGGLVQPGGSLRLSCAASGFTFSNYWISWVRQAPGKGLEWVAEIRSESDASATHYAEAVKGRFTISRDNAKNSLYLQMNSLRAEDTAVYYCTSYFDYGLAIQNYWGQGTLVTVSS VL: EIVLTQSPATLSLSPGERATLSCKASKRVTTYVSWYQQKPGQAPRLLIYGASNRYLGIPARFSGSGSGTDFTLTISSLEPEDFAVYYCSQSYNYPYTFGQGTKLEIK', 8.99);
